Attribution: patent US20170313756A1

Listed below: pKi values for each entry.
Target Entity: melanocortin 4 receptor (MC4R) (UniProt P32245)
Sequence (P32245 whole entry): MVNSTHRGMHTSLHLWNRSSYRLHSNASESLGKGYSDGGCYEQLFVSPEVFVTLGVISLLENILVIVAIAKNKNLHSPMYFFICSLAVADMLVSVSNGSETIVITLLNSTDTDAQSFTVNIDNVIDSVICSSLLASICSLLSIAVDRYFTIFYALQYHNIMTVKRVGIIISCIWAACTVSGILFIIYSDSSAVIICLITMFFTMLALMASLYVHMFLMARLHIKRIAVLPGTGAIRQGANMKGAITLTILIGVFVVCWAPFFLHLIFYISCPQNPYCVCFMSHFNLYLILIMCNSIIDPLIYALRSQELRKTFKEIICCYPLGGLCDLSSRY
Assay Remarks: 125I-NDP-MSH competition, HEK293 membranes
pKi: −log10 of the molar value. [ ]: non-standard residue; d: D form. dCha = N[C@H](CC1CCCCC1)C(=O)O
Observed Property: pKi

INSERT INTO assay_data (binder, value) VALUES
  ('Ac-[dV][dP][dK]G[dW][dR]F[dH][dS][dI][dI][dS][dS]-NH2 (SMILES CC[C@@H](C)[C@@H](NC(=O)[C@@H](CO)NC(=O)[C@@H](Cc1c[nH]cn1)NC(=O)[C@H](Cc1ccccc1)NC(=O)[C@@H](CCCNC(=N)N)NC(=O)[C@@H](Cc1c[nH]c2ccccc12)NC(=O)CNC(=O)[C@@H](CCCCN)NC(=O)[C@H]1CCCN1C(=O)[C@H](NC(C)=O)C(C)C)C(=O)N[C@@H](C(=O)N[C@H](CO)C(=O)N[C@H](CO)C(N)=O)[C@H](C)CC) [peptide 880]', 5.00),
  ('Ac-[dV][dP][dK]G[dW][dR][dF][dH][dS][dI][dI][dS][dS]-NH2 (SMILES CC[C@@H](C)[C@@H](NC(=O)[C@@H](CO)NC(=O)[C@@H](Cc1c[nH]cn1)NC(=O)[C@@H](Cc1ccccc1)NC(=O)[C@@H](CCCNC(=N)N)NC(=O)[C@@H](Cc1c[nH]c2ccccc12)NC(=O)CNC(=O)[C@@H](CCCCN)NC(=O)[C@H]1CCCN1C(=O)[C@H](NC(C)=O)C(C)C)C(=O)N[C@@H](C(=O)N[C@H](CO)C(=O)N[C@H](CO)C(N)=O)[C@H](C)CC) [peptide 886]', 5.00),
  ('VPKGWRXHEXSYS (N-terminal acetyl (Ac); C-terminal amide; D-Cha at 7; D-buthionine at 10; D-isomers at all residues except Gly 4) [peptide 890]', 4.85),
  ('Ac-[dV][dP][dK]G[dW][dR][dCha][dH][dS][dI][dI][dS][dS]-NH2 (SMILES CC[C@@H](C)[C@@H](NC(=O)[C@@H](CO)NC(=O)[C@@H](Cc1c[nH]cn1)NC(=O)[C@@H](CC1CCCCC1)NC(=O)[C@@H](CCCNC(=N)N)NC(=O)[C@@H](Cc1c[nH]c2ccccc12)NC(=O)CNC(=O)[C@@H](CCCCN)NC(=O)[C@H]1CCCN1C(=O)[C@H](NC(C)=O)C(C)C)C(=O)N[C@@H](C(=O)N[C@H](CO)C(=O)N[C@H](CO)C(N)=O)[C@H](C)CC) [RI α-MSH analog 891]', 5.49);
